Biological target: T1, MACP, CP of an uncharacterized NRP/PK gene cluster from M. aeruginosa NIES843
T1 chain: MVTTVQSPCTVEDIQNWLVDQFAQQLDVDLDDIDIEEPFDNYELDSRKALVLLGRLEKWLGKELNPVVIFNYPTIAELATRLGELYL
measuredProperty: kcat (min⁻¹)
Number in min⁻¹, nothing else.

In plain terms, Sfp, phosphopantetheinyl transferase from Bacillus subtilis (protein) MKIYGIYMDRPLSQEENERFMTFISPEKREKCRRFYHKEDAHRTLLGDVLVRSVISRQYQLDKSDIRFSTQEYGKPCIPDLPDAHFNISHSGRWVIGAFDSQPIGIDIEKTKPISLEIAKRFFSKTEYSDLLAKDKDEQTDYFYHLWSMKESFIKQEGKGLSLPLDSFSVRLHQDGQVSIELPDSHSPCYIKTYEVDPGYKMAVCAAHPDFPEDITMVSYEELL has a documented kcat of 5.1

In plain terms, APPT, Sfp-like phosphopantetheinyl transferase (PPTase) from Anabaena sp. PCC7120 (protein) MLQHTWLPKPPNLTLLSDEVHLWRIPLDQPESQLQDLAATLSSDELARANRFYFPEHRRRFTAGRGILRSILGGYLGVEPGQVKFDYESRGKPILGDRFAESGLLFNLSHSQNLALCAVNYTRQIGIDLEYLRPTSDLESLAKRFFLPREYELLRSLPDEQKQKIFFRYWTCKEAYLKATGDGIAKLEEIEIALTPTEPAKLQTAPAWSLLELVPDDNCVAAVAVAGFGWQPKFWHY has a documented kcat of 3.7

In plain terms, SPPT, Sfp-like phosphopantetheinyl transferase (PPTase) from Synechocystis sp. PCC6803 (protein) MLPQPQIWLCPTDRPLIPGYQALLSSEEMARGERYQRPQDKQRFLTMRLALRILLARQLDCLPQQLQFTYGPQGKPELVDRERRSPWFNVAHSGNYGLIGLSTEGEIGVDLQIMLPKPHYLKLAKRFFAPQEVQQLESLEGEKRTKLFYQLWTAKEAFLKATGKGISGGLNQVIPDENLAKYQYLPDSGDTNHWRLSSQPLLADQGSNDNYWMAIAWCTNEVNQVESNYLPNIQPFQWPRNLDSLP has a documented kcat of 4.3

In plain terms, MPPT, Sfp-like phosphopantetheinyl transferase (PPTase) from Microcystis aeruginosa NIES843 (protein) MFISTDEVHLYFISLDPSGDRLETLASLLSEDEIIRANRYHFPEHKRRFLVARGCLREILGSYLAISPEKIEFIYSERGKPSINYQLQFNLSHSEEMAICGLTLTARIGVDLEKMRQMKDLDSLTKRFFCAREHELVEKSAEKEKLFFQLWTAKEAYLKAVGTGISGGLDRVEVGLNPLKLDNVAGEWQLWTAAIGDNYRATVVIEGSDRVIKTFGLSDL has a documented kcat of 4.2
